System tested: T1, human RANK-L (human, UniProt O14788 140-317, limits assumed)
T1 construct: Soluble protein, used coated, biotinylated or labelled in ELISA, AlphaScreen, FMAT and Biacore; also called hRANK-L; soluble human RANK-L
T1 sequence (looked up): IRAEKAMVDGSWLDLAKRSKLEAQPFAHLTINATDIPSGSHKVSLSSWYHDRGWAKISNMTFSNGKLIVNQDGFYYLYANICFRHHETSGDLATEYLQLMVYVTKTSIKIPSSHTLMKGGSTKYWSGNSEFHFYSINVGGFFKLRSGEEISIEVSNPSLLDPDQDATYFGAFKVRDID
Test description: FMAT, ALEXA647-hRANK-L / RANK on HEK293T cells
pIC50: −log10 of the molar value.
As shown below, each of these binders has a reported pIC50 value.

Binder	pIC50
RANKL001p (VHH, PEG (3-Maleimidoproprionamide, 1,3-bis(Methoxy poly (ethylene glycol) modified 2-glycerol), Average MW 40,000) coupled after DTT reduction; the entry ends in GGGC, Bivalent pegylated humanized Nanobody; also called RANKL13hum5-9GS-RANKL13hum5-PEG) EVQLVESGGGLVQPGGSLRLSCAASGFTFSSYPMGWFRQAPGKGREFVSSITGSGGSTYYADSVKGRFTISRDNAKNTLYLQMNSLRPEDTAVYYCAAYIRPDTYLSRDYRKYDYWGQGTLVTVSSGGGGSGGGSEVQLVESGGGLVQPGGSLRLSCAASGFTFSSYPMGWFRQAPGKGREFVSSITGSGGSTYYADSVKGRFTISRDNAKNTLYLQMNSLRPEDTAVYYCAAYIRPDTYLSRDYRKYDYWGQGTLVTVSSGGGC	10.39
RANKL003p (VHH, PEG (3-Maleimidoproprionamide, 1,3-bis(Methoxy poly (ethylene glycol) modified 2-glycerol), Average MW 40,000) coupled after DTT reduction; the entry ends in GGGC, Bivalent pegylated humanized Nanobody; also called RANKL3p; RANKL18hum6-30GS-RANKL18hum6-PEG) EVQLVESGGGLVQPGGSLRLSCAASGRTFSRSAMGWFRQAPGKGREFVGFITGSGGTTYYADSVKGRFTISRDNAQNPVYLQMNSLRPEDTAVYYCAVYRRTYISSTYSESSEYDYWGQGTLVTVSSGGGGSGGGGSGGGGSGGGGSGGGGSGGGGSEVQLVESGGGLVQPGGSLRLSCAASGRTFSRSAMGWFRQAPGKGREFVGFITGSGGTTYYADSVKGRFTISRDNAQNPVYLQMNSLRPEDTAVYYCAVYRRTYISSTYSESSEYDYWGQGTLVTVSSGGGC	10.42
RANKL13hum5 (VHH) VHH: EVQLVESGGGLVQPGGSLRLSCAASGFTFSSYPMGWFRQAPGKGREFVSSITGSGGSTYYADSVKGRFTISRDNAKNTLYLQMNSLRPEDTAVYYCAAYIRPDTYLSRDYRKYDYWGQGTLVTVSS	9.86
RANKL18hum6 (VHH) VHH: EVQLVESGGGLVQPGGSLRLSCAASGRTFSRSAMGWFRQAPGKGREFVGFITGSGGTTYYADSVKGRFTISRDNAQNPVYLQMNSLRPEDTAVYYCAVYRRTYISSTYSESSEYDYWGQGTLVTVSS	9.42

Origin of the recorded values: patent US20110002929A1
